- tgt: BRM (Homo sapiens)
- Construct: made in house; host or cells: High Five insect cells
- Sequence (P51531 whole entry): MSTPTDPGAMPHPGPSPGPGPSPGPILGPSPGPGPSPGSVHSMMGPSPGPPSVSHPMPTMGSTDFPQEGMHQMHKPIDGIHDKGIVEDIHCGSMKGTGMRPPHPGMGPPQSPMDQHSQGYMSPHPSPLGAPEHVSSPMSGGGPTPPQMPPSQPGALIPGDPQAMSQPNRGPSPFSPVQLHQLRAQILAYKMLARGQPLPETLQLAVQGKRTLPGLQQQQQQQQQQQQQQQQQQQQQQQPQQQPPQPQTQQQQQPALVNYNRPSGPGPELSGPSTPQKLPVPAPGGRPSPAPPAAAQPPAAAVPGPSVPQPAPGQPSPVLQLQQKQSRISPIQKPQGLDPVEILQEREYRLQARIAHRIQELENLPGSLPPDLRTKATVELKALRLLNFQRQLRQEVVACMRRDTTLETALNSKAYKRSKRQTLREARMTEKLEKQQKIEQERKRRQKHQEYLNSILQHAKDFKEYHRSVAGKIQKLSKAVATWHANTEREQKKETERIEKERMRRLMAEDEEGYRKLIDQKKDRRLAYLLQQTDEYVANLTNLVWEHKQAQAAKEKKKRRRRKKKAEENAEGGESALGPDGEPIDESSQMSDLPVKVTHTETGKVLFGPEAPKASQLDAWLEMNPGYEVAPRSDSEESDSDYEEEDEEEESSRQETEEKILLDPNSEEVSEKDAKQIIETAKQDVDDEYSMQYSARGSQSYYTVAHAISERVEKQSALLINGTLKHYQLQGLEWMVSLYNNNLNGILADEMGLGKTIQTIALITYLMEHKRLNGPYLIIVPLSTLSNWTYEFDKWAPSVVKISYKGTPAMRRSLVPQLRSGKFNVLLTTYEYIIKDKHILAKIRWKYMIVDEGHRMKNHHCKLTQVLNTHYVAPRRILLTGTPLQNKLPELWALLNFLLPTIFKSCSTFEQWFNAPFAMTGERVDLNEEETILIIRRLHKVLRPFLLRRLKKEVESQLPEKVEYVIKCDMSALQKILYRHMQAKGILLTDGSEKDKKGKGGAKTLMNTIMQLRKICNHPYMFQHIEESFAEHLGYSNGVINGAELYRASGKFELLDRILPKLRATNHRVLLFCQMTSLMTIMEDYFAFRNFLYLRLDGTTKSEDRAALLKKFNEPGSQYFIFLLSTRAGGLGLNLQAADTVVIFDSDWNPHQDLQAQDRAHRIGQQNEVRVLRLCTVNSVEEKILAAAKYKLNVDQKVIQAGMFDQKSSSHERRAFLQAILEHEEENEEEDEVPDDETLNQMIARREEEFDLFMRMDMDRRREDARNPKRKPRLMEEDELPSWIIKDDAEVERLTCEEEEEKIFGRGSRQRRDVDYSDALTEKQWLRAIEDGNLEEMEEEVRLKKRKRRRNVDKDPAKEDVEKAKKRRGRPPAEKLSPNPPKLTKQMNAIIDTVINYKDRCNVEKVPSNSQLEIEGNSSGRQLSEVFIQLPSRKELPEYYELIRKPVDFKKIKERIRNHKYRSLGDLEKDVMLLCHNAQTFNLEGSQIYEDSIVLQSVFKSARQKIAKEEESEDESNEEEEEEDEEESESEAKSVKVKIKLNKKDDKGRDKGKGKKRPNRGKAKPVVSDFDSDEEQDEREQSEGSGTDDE
- assay-text: ATPase catalytic activity assay (ADP-Glo), BRM
- Assay type: biochemical
- conditions: ATPase assay, selectivity BRG1/BRM, Table 10
- Description: The ATPase catalytic activity of BRM or BRG-1 was measured by an in vitro biochemical assay using ADP-Glo™ (Promega, V9102). The ADP-Glo™ kinase assay is performed in two steps once the reaction is complete. The first step is to deplete any unconsumed ATP in the reaction. The second step is to convert the reaction product ADP to ATP, which will be utilized by the luciferase to generate luminesce and be detected by a luminescence reader, such as Envision. […]
// assign satisfied if Ratio (BRG1 IC50 (μM) divided by BRM IC50 (μM)) falls strictly below 20, else not satisfied (ties count as not satisfied)

compound | category
C[C@@H]1CN(c2cccc(-c3ccc4cnc(CNC(=O)c5cc(OC(F)F)c6c(c5)S(=O)(=O)[C@@H](F)CCO6)cc4n3)n2)C[C@H](C)O1 | satisfied
O=C(NCc1cc2nc(N3CCOc4ccc(C5CC5)nc43)ccc2cn1)c1ccc2c(c1)S(=O)(=O)[C@@H](F)CCO2 | not satisfied
O=C(NCc1cc2cc(N3CCOc4cc(C5CC5)cnc43)ccc2cn1)c1cc(F)c2c(c1)S(=O)(=O)[C@@H](F)CCO2 | satisfied
O=C(NCc1cc2nc(N3CCOc4cc(N5CC6CC6C5)cnc43)ccc2cn1)c1cc(F)c2c(c1)S(=O)(=O)[C@@H](F)CCO2 (some centres unmarked) | satisfied
CCOc1cccc(-c2ccc3cnc(CNC(=O)c4cc(F)c5c(c4)S(=O)(=O)[C@@H](F)CCO5)cc3n2)n1 | not satisfied
[2H]C1([2H])Oc2c(F)cc(C(=O)NCc3cc4nc(-c5ccc(OC(F)F)c(C6CC6)n5)ccc4cn3)cc2S(=O)(=O)[C@@]([2H])(F)C1([2H])[2H] | satisfied
O=C(NCc1cc2nc(N3CCOc4c(OCC5CC5)ccnc43)ccc2cn1)c1cc(F)c2c(c1)S(=O)(=O)[C@@H](F)CCO2 | not satisfied
O=C(NCc1cc2nc(-c3cncc(C4CC4)n3)ccc2cn1)c1cc(F)c2c(c1)S(=O)(=O)[C@@H](F)COC2 | satisfied

From: patent US12139487B2
